// provenance: paper PMC7960226

Experiment: Pharmacokinetics in rats after i.v. and oral administration
Settings: rat, in vivo, 1 mg/kg
measure-name: bioavailability
Put your answer as a value accompanied by its unit after it.

I am curious: what bioavailability value has been reported for CCCCCCCCCCCCCCCC[n+]1ccccc1 [Cetylpyridinium chloride] ?
5.4%

###

Experiment: Pharmacokinetics in rats after i.v. and oral administration
Conditions: rat, blood, po, 10 mg/kg, Oral Cmax, rats, oral 10 mg/kg
measure-name: Cmax (nM)
A number alone suffices; assume nM.

I am curious: what Cmax value has been reported for CCCOC(=O)c1cc(O)c(O)c(O)c1 [Propyl gallate] ?
5

###

Assay: Pharmacokinetics in rats after i.v. and oral administration
Settings: rat, in vivo, po, 10 mg/kg
measure-name: Cmax

I am curious: what Cmax value has been reported for CCCCOC(=O)c1ccc(O)cc1 ?
< 2.6 nM

###

Assay: Pharmacokinetics in rats after i.v. and oral administration
Conditions: rat, in vivo, iv, 1 mg/kg
measure-name: half-life (h)
A number alone suffices; assume h.

I am curious: what half-life value has been reported for CCCCCCCCCCCCCCCC[n+]1ccccc1 [Cetylpyridinium chloride] ?
9.7

###

Target: ADRA1A (Homo sapiens)
Sequence (P35348 whole entry): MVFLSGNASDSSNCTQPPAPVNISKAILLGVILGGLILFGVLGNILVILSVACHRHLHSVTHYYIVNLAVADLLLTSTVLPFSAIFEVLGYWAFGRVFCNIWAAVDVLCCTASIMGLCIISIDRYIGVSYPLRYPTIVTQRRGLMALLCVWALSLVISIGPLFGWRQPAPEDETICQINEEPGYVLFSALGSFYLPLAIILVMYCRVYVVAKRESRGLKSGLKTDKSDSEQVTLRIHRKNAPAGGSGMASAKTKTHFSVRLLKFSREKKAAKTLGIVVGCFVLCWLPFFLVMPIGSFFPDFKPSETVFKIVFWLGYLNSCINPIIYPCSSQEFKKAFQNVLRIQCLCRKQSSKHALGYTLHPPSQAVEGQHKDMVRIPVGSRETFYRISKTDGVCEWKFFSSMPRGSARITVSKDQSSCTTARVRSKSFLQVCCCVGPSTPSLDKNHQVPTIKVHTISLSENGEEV
Conditions: Table 2, ADRA1A; accurate to ±20%
measure-name: Ki/IC50 Or EC50 (µM)
A number alone suffices; assume µM.

I am curious: what Ki/IC50 Or EC50 value has been reported for Cc1ccc(C(C)C)c(O)c1 [Thymol] ?
26

Try this molecule next: O=C([O-])c1c(Cl)c(Cl)c(Cl)c(Cl)c1-c1c2cc(Br)c(=O)c(Br)c-2oc2c(Br)c([O-])c(Br)cc12.[Na+].[Na+] [D&C Red No. 28, Phloxine B]
0.48

Try this molecule next: CCCCCCCCCCCCOS(=O)(=O)[O-].[Na+] [Sodium lauryl sulfate]
15

Try this molecule next: CCCCOC(=O)c1ccc(O)cc1 [Butylparaben]
16

###

Target: SLC18A2 (Homo sapiens, UniProt Q05940)
Sequence (Q05940 whole entry, species assumed): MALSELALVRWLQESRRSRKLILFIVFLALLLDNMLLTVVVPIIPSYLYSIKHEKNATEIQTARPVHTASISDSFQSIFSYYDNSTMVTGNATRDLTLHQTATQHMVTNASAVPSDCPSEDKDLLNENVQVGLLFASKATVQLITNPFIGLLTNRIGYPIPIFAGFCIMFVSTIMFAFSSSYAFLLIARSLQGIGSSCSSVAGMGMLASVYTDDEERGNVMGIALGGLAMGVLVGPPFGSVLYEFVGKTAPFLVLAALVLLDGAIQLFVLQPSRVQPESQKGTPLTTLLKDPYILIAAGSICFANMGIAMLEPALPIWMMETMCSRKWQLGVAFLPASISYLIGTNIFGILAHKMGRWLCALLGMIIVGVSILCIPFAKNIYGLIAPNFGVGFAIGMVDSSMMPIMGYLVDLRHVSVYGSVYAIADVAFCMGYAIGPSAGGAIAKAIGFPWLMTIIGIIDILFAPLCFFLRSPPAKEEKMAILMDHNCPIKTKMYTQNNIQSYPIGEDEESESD
Assay: transporter inhibition, SLC18A2
Type: biochemical
Settings: Table 2, SLC18A2; accurate to ±20%
For each of the molecules below, state its Ki/IC50 Or EC50.
A number alone suffices; assume µM.

I am curious: what Ki/IC50 Or EC50 value has been reported for CCOC(=O)c1ccc(O)cc1 ?
22

Try this molecule next: CCCCCCCC/C=C\CCCCCCCC(=O)O
4.7

Try this molecule next: CCCCOC(=O)c1ccc(O)cc1
6.6

Try this molecule next: O=C(O)c1ccccc1
18

Try this molecule next: CC(=O)[O][Hg][c]1ccccc1 [Phenylmercuric acetate]
0.36

Try this molecule next: CCCCCCCCCCCCCCCC(=O)O
4.4

Try this molecule next: Cc1ccc(C(C)C)c(O)c1
25

###

Biological target: DRD3 (Homo sapiens, UniProt P35462)
Sequence (P35462 whole entry, species assumed): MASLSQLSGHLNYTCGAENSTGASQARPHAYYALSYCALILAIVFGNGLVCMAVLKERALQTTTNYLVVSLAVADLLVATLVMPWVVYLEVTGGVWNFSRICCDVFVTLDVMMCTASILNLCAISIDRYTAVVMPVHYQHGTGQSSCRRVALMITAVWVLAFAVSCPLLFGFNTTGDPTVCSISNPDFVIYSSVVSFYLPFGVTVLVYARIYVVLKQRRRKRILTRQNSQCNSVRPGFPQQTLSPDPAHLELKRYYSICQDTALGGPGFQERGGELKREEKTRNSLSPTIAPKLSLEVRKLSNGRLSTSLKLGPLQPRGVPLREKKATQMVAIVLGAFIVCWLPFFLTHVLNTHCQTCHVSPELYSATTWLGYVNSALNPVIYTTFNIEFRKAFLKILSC
Conditions: read-out: dopamine D3 receptor Kd
measure-name: Kd

I am curious: what Kd value has been reported for C[CH2][Hg] ?
~210 nM

Try this compound next: C[CH2][Hg][S]c1ccccc1C(=O)[O-].[Na+]
320 nM
